Listing: S. epidermidis growth grade, 13 day of selected compounds
test system: Staphylococcus epidermidis ATCC 12228; test: Microbiological challenge testing in BPW broth, graded subculture counts; assay type: cell-based; details: 1.25% weight/volume; 13 day

Compound	Measurement Kind	Test Value
OCC1CCCC(CO)C1 (stereo not drawn) [1,3-CHDM, 1,3-cyclohexanedimethanol]	S. epidermidis growth grade, 13 day	3.7

Now look at this one.
Summary line: OCC1CCC(CO)CC1 (stereo not drawn) [1,4-CHDM, 1,4-cyclohexanedimethanol] , Staphylococcus epidermidis ATCC 12228, reported S. epidermidis growth grade, 13 day = 0.7

====

Listing: Grade of selected compounds
system: Burkholderia cepacia Wild type; assay: Microbiological challenge testing in BPW broth, graded subculture counts; assay type: cell-based; details: B. cepacia, 5.0% (wt/vol), 30 day
Respond with the number and no other words.

Would you please look over these solved cases?
Compound	Measurement Kind	Test Value
O=C([O-])CN(CCN(CC(=O)[O-])CC(=O)O)CC(=O)O.[Na+].[Na+]	Grade	0
CC1(C)C(O)C(C)(C)C1O (stereo not shown)	Grade	0
OCC1CCCC(CO)C1 (stereo not shown)	Grade	3.3
OCC1CCC(CO)CC1 (stereo not shown)	Grade	0

Notebook: CCCCOCCO , Grade read as 0

Notebook: OCC1CCCCC1CO (stereo not shown) , Grade read as 0

====

Listing: Grade of selected compounds
system: Burkholderia cepacia Wild type; assay: Microbiological challenge testing in BPW broth, graded subculture counts; format: cell-based; settings: B. cepacia, 1.25% (wt/vol), 30 day

Compound	Grade
OCC1CCCCC1CO (stereo not drawn) [1,2-CHDM, 1,2-cyclohexanedimethanol]	0

Now look at this one.
Notebook: OCC1CCCC(CO)C1 (stereo not drawn) [1,3-CHDM, 1,3-cyclohexanedimethanol] , Grade read as 4.7

====

system: Malassezia furfur (ATCC 96809); experiment: Challenge testing against pathogenic fungi, growth rating in broth tubes; format: cell-based; parameters: key: 0: No visible growth; 1: Some growth in tube; 2: Moderate growth in tube; 3: Good growth in tube; 4: Extreme growth in tube; settings: 1.25% weight/volume; 30 day
Measurement Kind: M. furfur growth rating, 30 day
Respond with the number and no other words.

Would you please look over these solved cases?
Molecule	M. furfur growth rating, 30 day
O=C([O-])CN(CCN(CC(=O)[O-])CC(=O)O)CC(=O)O.[Na+].[Na+] [EDTA, Na2EDTA]	0
OCC1CCC(CO)CC1 (stereo not drawn) [1,4-CHDM, 1,4-cyclohexanedimethanol]	0
CC1(C)C(O)C(C)(C)C1O (stereo not drawn) [TMCBD, 2,2,4,4-tetramethyl-1,3-cyclobutanediol]	2
CC(O)CO (stereo not drawn) [PG, propylene glycol]	3
OCC1CCCC(CO)C1 (stereo not drawn) [1,3-CHDM, 1,3-cyclohexanedimethanol]	3

Now look at this one.
Summary line: OCC1CCCCC1CO (stereo not drawn) [1,2-CHDM, 1,2-cyclohexanedimethanol] , Malassezia furfur (ATCC 96809), reported M. furfur growth rating, 30 day = 0

====

Listing: T. rubrum growth rating, 30 day of selected compounds
tested on: Trichophyton rubrum (ATCC 10218); assay: Challenge testing against pathogenic fungi, growth rating in broth tubes; assay type: cell-based; set-up: key: 0: No visible growth; 1: Some growth in tube; 2: Moderate growth in tube; 3: Good growth in tube; 4: Extreme growth in tube; conditions: 0.5% weight/volume; 30 day
Respond with the number and no other words.

Compound	Tested Target	Measurement Kind	Test Value
CC(O)CO (stereo not drawn)	Trichophyton rubrum (ATCC 10218)	T. rubrum growth rating, 30 day	1
OCC1CCC(CO)CC1 (stereo not drawn)	Trichophyton rubrum (ATCC 10218)	T. rubrum growth rating, 30 day	1
CC1(C)C(O)C(C)(C)C1O (stereo not drawn)	Trichophyton rubrum (ATCC 10218)	T. rubrum growth rating, 30 day	0
O=C([O-])CN(CCN(CC(=O)[O-])CC(=O)O)CC(=O)O.[Na+].[Na+]	Trichophyton rubrum (ATCC 10218)	T. rubrum growth rating, 30 day	0
OCC1CCCCC1CO (stereo not drawn)	Trichophyton rubrum (ATCC 10218)	T. rubrum growth rating, 30 day	0

Now look at this one.
Notebook: OCC1CCCC(CO)C1 (stereo not drawn) , T. rubrum growth rating, 30 day read as 1

====

tested on: Pseudomonas aeruginosa Wild type; test: Microbiological challenge testing in BPW broth, graded subculture counts; format: cell-based; conditions: P. aeruginosa, 2.5% (wt/vol), 13 day
Measurement Kind: Grade

Notebook: OCC1CCCCC1CO (stereo not shown) , Grade read as 0

====

Listing: B. subtillis growth grade, 14 day of selected compounds
system: Bacillus subtilis Wild type; assay: Microbiological challenge testing in BPW broth, graded subculture counts; assay type: cell-based; details: 2.5% weight/volume; 14 day

Compound	B. subtillis growth grade, 14 day
OCC1CCCCC1CO (stereo not shown)	0

Notebook: O=C([O-])CN(CCN(CC(=O)[O-])CC(=O)O)CC(=O)O.[Na+].[Na+] , B. subtillis growth grade, 14 day read as 0

====

tested on: Escherichia coli ATCC 25922; test: Microbiological challenge testing in BPW broth, graded subculture counts; assay type: cell-based; settings: E. Coli, 2.5% (wt/vol), 3 day
Measurement Kind: Grade

Notebook: O=C([O-])CN(CCN(CC(=O)[O-])CC(=O)O)CC(=O)O.[Na+].[Na+] [EDTA, Na2EDTA] , Grade read as 0

====

tested on: Escherichia coli ATCC 25922; assay: Microbiological challenge testing in BPW broth, graded subculture counts; type: cell-based; conditions: E. Coli, 2.5% (wt/vol), 30 day
Listing: Grade of selected compounds
Respond with the number and no other words.

Would you please look over these solved cases?
Compound	Tested Target	Grade
O=C([O-])CN(CCN(CC(=O)[O-])CC(=O)O)CC(=O)O.[Na+].[Na+] [EDTA, Na2EDTA]	Escherichia coli ATCC 25922	0
OCC1CCCCC1CO (stereo not shown) [1,2-CHDM, 1,2-cyclohexanedimethanol]	Escherichia coli ATCC 25922	0

Notebook: OCC1CCC(CO)CC1 (stereo not shown) [1,4-CHDM, 1,4-cyclohexanedimethanol] , Grade read as 0

====

Listing: Grade of selected compounds
tested on: Staphylococcus aureus ATCC 25923; assay: Microbiological challenge testing in BPW broth, graded subculture counts; type: cell-based; details: S. aureus, 2.5% (wt/vol), 30 day
Respond with the number and no other words.

Would you please look over these solved cases?
Compound	Measurement Kind	Test Value
O=C([O-])CN(CCN(CC(=O)[O-])CC(=O)O)CC(=O)O.[Na+].[Na+]	Grade	0.3
OCC1CCC(CO)CC1 (stereo not shown)	Grade	0

Now look at this one.
Summary line: OCC1CCCCC1CO (stereo not shown) , Staphylococcus aureus ATCC 25923, reported Grade = 0

====

tested on: Staphylococcus aureus ATCC 25923; assay: Microbiological challenge testing in BPW broth, graded subculture counts; assay type: cell-based; conditions: S. aureus, 2.5% (wt/vol), 3 day
Listing: Grade of selected compounds

Compound	Tested Target	Grade
OCC1CCCCC1CO (stereo not shown) [1,2-CHDM, 1,2-cyclohexanedimethanol]	Staphylococcus aureus ATCC 25923	0

Now look at this one.
Notebook: OCC1CCC(CO)CC1 (stereo not shown) [1,4-CHDM, 1,4-cyclohexanedimethanol] , Grade read as 1.7
